Sourced from PubChem BioAssay AID1835

target: Voltage-gated inwardly rectifying potassium channel KCNH2 (Homo sapiens) (UniProt Q12809); assay: hERG protection against dofetilide inhibition, confirmation, cell-based, thallium flux, duplicate retest, dofetilide IC70 (AID 1835); conditions: hERG cell line, FluxOR thallium flux, dofetilide-blocked; at 10 µM; stronger effect = higher value
Sequence (Q12809 whole entry, looked up): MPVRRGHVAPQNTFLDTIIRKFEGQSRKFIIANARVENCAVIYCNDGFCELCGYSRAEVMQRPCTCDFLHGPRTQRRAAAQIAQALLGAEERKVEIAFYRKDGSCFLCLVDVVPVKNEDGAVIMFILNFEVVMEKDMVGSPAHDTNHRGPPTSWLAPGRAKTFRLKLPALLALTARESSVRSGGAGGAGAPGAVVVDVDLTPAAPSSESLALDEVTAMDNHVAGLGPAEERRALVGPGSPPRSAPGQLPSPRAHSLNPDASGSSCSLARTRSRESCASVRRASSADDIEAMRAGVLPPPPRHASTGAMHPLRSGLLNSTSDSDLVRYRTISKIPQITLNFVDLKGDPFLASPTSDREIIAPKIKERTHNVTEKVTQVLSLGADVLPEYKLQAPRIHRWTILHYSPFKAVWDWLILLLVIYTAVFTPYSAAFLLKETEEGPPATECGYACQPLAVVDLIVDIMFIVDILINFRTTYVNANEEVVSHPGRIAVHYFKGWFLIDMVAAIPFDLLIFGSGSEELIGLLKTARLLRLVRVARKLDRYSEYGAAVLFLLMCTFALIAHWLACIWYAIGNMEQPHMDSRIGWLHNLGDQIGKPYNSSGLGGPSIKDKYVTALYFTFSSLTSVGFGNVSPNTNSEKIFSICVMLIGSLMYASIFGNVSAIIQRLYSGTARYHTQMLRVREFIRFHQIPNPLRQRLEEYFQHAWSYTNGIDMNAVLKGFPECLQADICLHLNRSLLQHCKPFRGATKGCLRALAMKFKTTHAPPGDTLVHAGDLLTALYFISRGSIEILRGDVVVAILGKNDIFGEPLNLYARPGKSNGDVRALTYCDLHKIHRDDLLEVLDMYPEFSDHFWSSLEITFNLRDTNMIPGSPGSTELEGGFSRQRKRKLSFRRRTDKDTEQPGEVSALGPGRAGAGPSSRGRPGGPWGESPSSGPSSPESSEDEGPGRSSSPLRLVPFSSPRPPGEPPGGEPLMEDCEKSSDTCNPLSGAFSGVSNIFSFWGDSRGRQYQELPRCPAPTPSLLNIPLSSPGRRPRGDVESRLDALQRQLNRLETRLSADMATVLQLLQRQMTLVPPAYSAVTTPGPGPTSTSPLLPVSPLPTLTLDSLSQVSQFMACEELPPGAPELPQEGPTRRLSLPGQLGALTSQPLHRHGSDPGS
The whole screen tested about 2,400 compounds, of which about 750 (31%) were called active. The list shows a part of the results.
measurement-label: activity increase over dofetilide control, less the hit threshold (%)

# compound, value-reported
measured = [
    ("CCOC(=O)c1c(C)oc2cc(Br)c(OC)cc12", -2),
    ("CCOC(=O)c1cnn(-c2nc(SC)nc3sc4c(c23)CCCC4)c1N", -1),
    ("C/C(=N/NC(=O)c1ccncc1)c1ccc2c(c1)OCO2", -9),
    ("CCOC(=O)c1sc2ncnc(NCC(c3cccs3)N(C)C)c2c1C (stereo not drawn)", 40),
    ("COC(=O)c1sccc1NC(=O)CSc1ccccc1NS(=O)(=O)c1cc(Cl)ccc1Cl", -3),
    ("O=C(Cn1c(=O)oc2ccccc21)Nc1ccc(F)c(F)c1", -29),
    ("CCOC(=O)c1sc(NC(=O)c2ccccc2C(=O)O)c(C(=O)OCC)c1C", -4),
    ("Cc1ccc(OC(=O)c2sc3ncn(C)c(=O)c3c2C)cc1", -18),
]

---

molecular target: Voltage-gated inwardly rectifying potassium channel KCNH2 (Homo sapiens) (UniProt Q12809); experiment: hERG protection against dofetilide inhibition, confirmation, cell-based, thallium flux, duplicate retest, dofetilide IC70 (AID 1835); conditions: hERG cell line, FluxOR thallium flux, dofetilide-blocked; at 10 µM; stronger effect = higher value
About 750 (31%) of roughly 2,400 compounds were called active. This is one part of the list.
# binarize activity increase over dofetilide control, less the hit threshold: threshold -20% inclusive, high side t, low side f

# compound, qualitative-label
rows = [
    ("COC(=O)C(C)Sc1nnc(Cc2cc(=O)[nH]c(=O)[nH]2)n1-c1cccc(OC)c1 (centres undefined)", "t"),
    ("NC(=O)Cn1nnc(-c2ccc(CN3CCCCC3)cc2)n1", "f"),
    ("Cc1c(C#N)c(O)[nH]c(=O)c1N=Nc1ccc(Br)cc1C(=O)O", "t"),
    ("Cc1cccc(N2CCN(C(=O)Cc3c(C(=O)O)[nH]c4ccc(Cl)cc34)CC2)c1C", "t"),
    ("Cc1ccc(S(=O)(=O)Nc2c(C)[nH]c(=O)[nH]c2=O)cc1C", "t"),
    ("Cc1cccc(N2CCN(C(=O)CNC(=O)c3cccc([N+](=O)[O-])c3)CC2)c1C", "t"),
    ("CCCCCC/C(C)=C1/SC(=S)NC1=O", "t"),
    ("Cc1ccnc(SCCn2c(N3CC(C)OC(C)C3)nc3c2c(=O)n(C)c(=O)n3C)n1 (centres undefined)", "f"),
]

---

biological target: Voltage-gated inwardly rectifying potassium channel KCNH2 (Homo sapiens); test: hERG protection against dofetilide inhibition, confirmation, cell-based, thallium flux, duplicate retest, dofetilide IC70 (AID 1835); conditions: hERG cell line, FluxOR thallium flux, dofetilide-blocked; at 10 µM; stronger effect = higher value
The whole screen tested about 2,400 compounds, of which about 750 (31%) were called active. The list shows a part of the results.
# activity increase over dofetilide control, less the hit threshold values compiled below
measurement-label: activity increase over dofetilide control, less the hit threshold (%)

# compound, value-reported
data = [
    ("COc1ccc(NC(=O)CC23CC4CC(CC(C4)C2)C3)cn1", -17),
    ("CCCNc1c(NS(=O)(=O)c2cccc(C#N)c2)c(=O)oc2ccccc12", -6),
    ("Cc1ccc(C)c(NC(=O)C2C3CCCC2C3c2ccccc2)c1 (stereo not given)", -16),
    ("Fc1ccccc1-c1n[nH]c(=S)n1C1CC1", -4),
    ("Cc1ccc(F)cc1CNC(=O)C1CCC(=O)N(C2CC2)C1 (stereo not given)", -7),
]

---

target: Voltage-gated inwardly rectifying potassium channel KCNH2 (Homo sapiens); test: hERG protection against dofetilide inhibition, confirmation, cell-based, thallium flux, duplicate retest, dofetilide IC70 (AID 1835); conditions: hERG cell line, FluxOR thallium flux, dofetilide-blocked; at 10 µM; stronger effect = higher value
In all, about 2,400 compounds went through this assay and about 750 (31%) were called active. The list shows a part of the results.
We begin with a simple list: items and their reported activity increase over dofetilide control, less the hit threshold.
measurement-label: activity increase over dofetilide control, less the hit threshold (%)

# compound, target-system, value-units, value-reported
data = [
    ("N#Cc1ccc(-c2ccc(OCC(=O)Nc3cccnc3)cc2)cc1", "Voltage-gated inwardly rectifying potassium channel KCNH2 (Homo sapiens)", "%", -10),
    ("Cc1ccccc1OCC(=O)NNC(=O)c1ccc2c(=O)n3c(nc2c1)CCC3", "Voltage-gated inwardly rectifying potassium channel KCNH2 (Homo sapiens)", "%", -21),
    ("CCC(=O)N(CC)c1nc(-c2ccc(OC)cc2)cs1", "Voltage-gated inwardly rectifying potassium channel KCNH2 (Homo sapiens)", "%", 17),
    ("CCOC(=O)NC(=O)/C(C#N)=N\\Nc1ccc(Cl)cc1", "Voltage-gated inwardly rectifying potassium channel KCNH2 (Homo sapiens)", "%", -17),
    ("Cc1ccc(NC(=O)c2ccc(NC3=NC4CS(=O)(=O)CC4S3)cc2)cc1 (configuration not stated)", "Voltage-gated inwardly rectifying potassium channel KCNH2 (Homo sapiens)", "%", -14),
    ("Nc1ccc2nc(-c3cccs3)[nH]c2c1", "Voltage-gated inwardly rectifying potassium channel KCNH2 (Homo sapiens)", "%", -10),
    ("Cc1cc(C)c2nc(NC(=O)CN3C(=O)NC4(CCCC4)C3=O)sc2c1", "Voltage-gated inwardly rectifying potassium channel KCNH2 (Homo sapiens)", "%", -10),
    ("Cc1cc(O)c(/C=N/OCc2ccc(Cl)cc2Cl)c(=O)o1", "Voltage-gated inwardly rectifying potassium channel KCNH2 (Homo sapiens)", "%", -4),
    ("N#Cc1c2n(c3c(=O)n(Cc4ccc(Cl)cc4)cnc13)CCCC2", "Voltage-gated inwardly rectifying potassium channel KCNH2 (Homo sapiens)", "%", -14),
    ("CCN1CCN(CCNC(=O)CCCn2nc(C)c3c(C)n(-c4ccc(C)cc4)nc3c2=O)CC1", "Voltage-gated inwardly rectifying potassium channel KCNH2 (Homo sapiens)", "%", -8),
    ("CCOC(=O)NC(=S)Nc1ccc(C(C)(C)C)cc1", "Voltage-gated inwardly rectifying potassium channel KCNH2 (Homo sapiens)", "%", 3),
    ("COc1ccc([N+](=O)[O-])cc1N(CC(=O)NCc1ccco1)S(C)(=O)=O", "Voltage-gated inwardly rectifying potassium channel KCNH2 (Homo sapiens)", "%", -21),
    ("COc1ccc(S(=O)(=O)Nc2cccnc2)cc1", "Voltage-gated inwardly rectifying potassium channel KCNH2 (Homo sapiens)", "%", -11),
    ("O=C(COc1ccc(C(=O)c2ccccc2)cc1)Nc1cccnc1", "Voltage-gated inwardly rectifying potassium channel KCNH2 (Homo sapiens)", "%", 4),
    ("COc1ccc2c(C(=O)CN3CCN(c4ccccc4)CC3)c[nH]c2c1", "Voltage-gated inwardly rectifying potassium channel KCNH2 (Homo sapiens)", "%", -10),
    ("S=c1[nH]nc(-c2ccco2)n1/N=C/C(Cl)=C/c1ccccc1", "Voltage-gated inwardly rectifying potassium channel KCNH2 (Homo sapiens)", "%", -14),
    ("Oc1c(Br)cc(Br)cc1CNc1cccc2cccnc12", "Voltage-gated inwardly rectifying potassium channel KCNH2 (Homo sapiens)", "%", -19),
    ("COC(=O)c1sc(NC(=S)NC(=O)c2ccccc2C)nc1C", "Voltage-gated inwardly rectifying potassium channel KCNH2 (Homo sapiens)", "%", 26),
    ("Cc1ccc(C(C)NC(=O)c2cccs2)cc1C (configuration not stated)", "Voltage-gated inwardly rectifying potassium channel KCNH2 (Homo sapiens)", "%", -21),
    ("CC(Oc1ccc(Br)cc1Br)C(=O)Nc1cccnc1 (configuration not stated)", "Voltage-gated inwardly rectifying potassium channel KCNH2 (Homo sapiens)", "%", 9),
    ("COC(=O)CNC(=S)NC(=O)c1ccc(C(C)(C)C)cc1", "Voltage-gated inwardly rectifying potassium channel KCNH2 (Homo sapiens)", "%", -8),
    ("CCCC(=O)NC(=S)Nc1nc(-c2ccc(OC)cc2)cs1", "Voltage-gated inwardly rectifying potassium channel KCNH2 (Homo sapiens)", "%", -11),
    ("CC(Oc1ccc(Cl)cc1Cl)C(=O)Nc1cccnc1 (configuration not stated)", "Voltage-gated inwardly rectifying potassium channel KCNH2 (Homo sapiens)", "%", -23),
    ("CS(=O)(=O)N(CCc1ccccc1)CC(=O)N1CCN(c2ccc(F)cc2)CC1", "Voltage-gated inwardly rectifying potassium channel KCNH2 (Homo sapiens)", "%", -9),
    ("CCOC(=O)NC(=S)Nc1ccc(C(C)(C)C)cc1Br", "Voltage-gated inwardly rectifying potassium channel KCNH2 (Homo sapiens)", "%", 23),
    ("Cc1ccc(C)c(NC(=S)c2nc3ccccc3s2)c1", "Voltage-gated inwardly rectifying potassium channel KCNH2 (Homo sapiens)", "%", -10),
    ("CC(NC(=O)c1ccc(F)cc1)c1ccc2c(c1)CCCC2 (configuration not stated)", "Voltage-gated inwardly rectifying potassium channel KCNH2 (Homo sapiens)", "%", -12),
    ("CC1CCN(S(=O)(=O)c2ccc3nc(N4CCN(c5ccccc5)CC4)ccc3c2)CC1", "Voltage-gated inwardly rectifying potassium channel KCNH2 (Homo sapiens)", "%", -22),
    ("CC(C)CC1C(C#N)=C(N)Oc2n[nH]c(-c3cccs3)c21 (configuration not stated)", "Voltage-gated inwardly rectifying potassium channel KCNH2 (Homo sapiens)", "%", -16),
    ("CCCn1c(SCC(=O)Nc2nc(-c3ccc(OC)cc3)cs2)nc2c1c(=O)n(C)c(=O)n2C", "Voltage-gated inwardly rectifying potassium channel KCNH2 (Homo sapiens)", "%", -8),
    ("Cc1cc(Br)c(NC(=O)COC(=O)C2CC2C)c(Br)c1 (configuration not stated)", "Voltage-gated inwardly rectifying potassium channel KCNH2 (Homo sapiens)", "%", -11),
    ("COc1ccc(C2CC(c3ccc(Cl)cc3Cl)Nc3nc(N)nn32)cc1OC (configuration not stated)", "Voltage-gated inwardly rectifying potassium channel KCNH2 (Homo sapiens)", "%", -10),
    ("O=C(CN1CCCCCCC1)Nc1cccc(Cl)c1Cl", "Voltage-gated inwardly rectifying potassium channel KCNH2 (Homo sapiens)", "%", -14),
    ("Cc1cccc(/C=N/n2c(COc3ccccc3)n[nH]c2=S)c1", "Voltage-gated inwardly rectifying potassium channel KCNH2 (Homo sapiens)", "%", 1),
    ("CC(C)[C@H](NC(=O)OC(C)(C)C)C(=O)NCC1CCC(C(=O)N[C@@H](Cc2ccccc2)C(=O)O)CC1 (some centres not stated)", "Voltage-gated inwardly rectifying potassium channel KCNH2 (Homo sapiens)", "%", -5),
    ("O=C(COC(=O)C1CCC(=O)N1)Nc1ccc(Oc2ccccc2)cc1 (configuration not stated)", "Voltage-gated inwardly rectifying potassium channel KCNH2 (Homo sapiens)", "%", -9),
    ("O=C1CCN(S(=O)(=O)c2ccc(Cl)cc2)CCN1", "Voltage-gated inwardly rectifying potassium channel KCNH2 (Homo sapiens)", "%", -25),
]
